assay: protein stability index of a GFP-peptide fusion (yeast GPS) (PSI 1-4); higher = more stable; sorted into four equal gates, so the index is relative within each strain; conditions: doa10∆
Label rule, in plain words: protein stability index of 3 and up is 1, under 3 is -1.

RECORD SEQUENCE | DISCRETE LABEL
IPYSRNAPAWFKLSSES [RPS13] | -1
YASYFPYLLETYANVLI [RPN7] | -1
FNKYADPTLTTTTSFTT [RPN4] | -1
KELVECHLYSQRMHAIH [NNF1] | -1
QVRKDLGNVIVPNILSL [NUT1] | -1
SDTLKEFKIEQNNEQNP [YDL116W/NUP84] | -1
IAASAFLSLLNLATKGM [REC8] | -1
RNNFLAENSHTQPKATS [PUP1] | 1
AFHNNLKFLYLLDAYSH [MED1] | -1
ILEDDFAVALKNEPDYS [CDC53] | 1
SSPEEPFMSYSPQLTAI [SNF12] | -1
LPNEAGRLEIFKIHTAK [RPT4] | -1
TRNSNNLAIVELVRLLI [BRR2] | -1
NVDVCVMEIGKDAEYLR [PUP1] | -1
PAGFTHKLSNWLFGWND [YDL088C/ASM4] | -1
YKRQKSSLLYTYDENDD [ESC2] | -1
SSNTNNNTNNNNTNTGA [SWI1] | 1
FELVSDLSYIEFLFESL [ECM29] | -1
RLGFFYNDQLYVKEKLE [RPN7] | -1
ERVQSDENKDDELVKLL [SRP68] | 1
HESTSRTDQYTIDNIDS [YMR129W/POM152] | -1
GYVSSLVEPSKVGQFDQ [FAS1] | -1
SASSLVITALKEPPRDR [RPL12A] | -1
AEQEKAKNIISNVLDGN [LRP1] | -1
STDELVGSPLTVSILQE [POP8] | -1
VMEIGKDAEYLRNYLTP [PUP1] | -1
TTESNSRLKALNLQFKA [YLR335W/NUP2] | 1

----------
assay: protein stability index of a GFP-peptide fusion (yeast GPS) (PSI 1-4); higher = more stable; sorted into four equal gates, so the index is relative within each strain; settings: san1∆
Decision: protein stability index compared against 3; not below it gives t, below it gives f.

RECORD SEQUENCE | DISCRETE LABEL
EKGKKVSGFKDEVLETV [RPS1B] | t
SFPILDQCVGQVGLNFE [YMR129W/POM152] | t
KVGYTLPSHIISTSDVT [RPL4A] | f
ATTQDQVASIIESFVEL [NUT2] | f
SLLKTKLKQQSSTDIPS [RRI1] | f
LSLHTGFIENCNGSALV [MTR3] | f

----------
assay: protein stability index of a GFP-peptide fusion (yeast GPS) (PSI 1-4); higher = more stable; sorted into four equal gates, so the index is relative within each strain; details: pdr5∆
Documented protein stability index across a set of sequences
ASSAY METRIC: protein stability index

RECORD SEQUENCE | ASSAY METRIC | TEST RESULT
LAGKRGPKSGSTMGTPT [PGD1] | protein stability index | 2.95
NELLLPSELNQLKMVNE [RPC82] | protein stability index | 2.94
QLNGNETFSTSAHQSPI [SNF2] | protein stability index | 2.99
SSVKTCFKPMSLTSKRL [RIP1] | protein stability index | 3.04
